inhibition overview
- assayed.target: Interleukin-1 receptor-associated kinase 4 (Homo sapiens) (UniProt Q9NWZ3);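 note: mean inhibition values, from the GSK PKIS dataset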
- Sequence (Q9NWZ3 whole entry): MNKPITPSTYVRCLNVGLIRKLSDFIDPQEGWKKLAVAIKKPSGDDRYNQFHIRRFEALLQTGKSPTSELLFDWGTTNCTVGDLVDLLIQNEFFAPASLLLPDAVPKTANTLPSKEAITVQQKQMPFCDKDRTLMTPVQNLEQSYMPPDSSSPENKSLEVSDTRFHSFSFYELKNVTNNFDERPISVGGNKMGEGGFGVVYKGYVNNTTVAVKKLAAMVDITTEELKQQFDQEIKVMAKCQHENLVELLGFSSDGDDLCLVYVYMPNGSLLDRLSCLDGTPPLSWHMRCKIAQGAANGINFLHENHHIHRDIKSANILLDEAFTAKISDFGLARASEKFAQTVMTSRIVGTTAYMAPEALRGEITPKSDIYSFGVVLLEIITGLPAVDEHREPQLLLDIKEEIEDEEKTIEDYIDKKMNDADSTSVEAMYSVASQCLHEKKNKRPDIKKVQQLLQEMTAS
- assay.conditions: at 1 µM
endpoint: inhibition

compound_smiles=CCS(=O)(=O)c1ccc(OC)c(Nc2ncc(-c3ccccc3Cl)o2)c1 endpoint=inhibition recorded_value=3.5%
compound_smiles=COc1cccc(/C=N/Nc2ncnc3c2cnn3-c2cccc(OC)c2)c1 endpoint=inhibition recorded_value=2.48%
compound_smiles=C#Cc1cccc(Nc2ncnc3ccc(OCCCCNCCS(C)(=O)=O)cc23)c1 endpoint=inhibition recorded_value=2.41%
compound_smiles=C/C(Nc1ccc(S(N)(=O)=O)cc1)=C1/C(=O)Nc2ccccc21 endpoint=inhibition recorded_value=0.3%
compound_smiles=NC(=O)Cc1ccccc1Oc1nccc(-c2c(-c3ccc(F)cc3)ncn2C2CCNCC2)n1 endpoint=inhibition recorded_value=1.16%
compound_smiles=NC(=O)c1cc(-c2ccncc2)cc(-c2ccccc2)c1N endpoint=inhibition recorded_value=2.52%
compound_smiles=O=C(Nc1n[nH]c2nc(-c3ccc(O)cc3)c(Br)cc12)C1CC1 endpoint=inhibition recorded_value=3.24%
compound_smiles=COc1ccc2cc(-c3c(-c4ccncc4)nc(-c4ccc(S(C)(=O)=O)cc4C)n3C)ccc2c1 endpoint=inhibition recorded_value=2.09%
compound_smiles=Fc1ccc(-c2nc3n(c2-c2ccncc2)CCS3)cc1 endpoint=inhibition recorded_value=2.37%
compound_smiles=COc1ccc2ncn(-c3cc(O[C@H](C)c4ccccc4Cl)c(C(N)=O)s3)c2c1 endpoint=inhibition recorded_value=1.82%
